Ref: patent US20260258115A1

Items are presented alongside their recorded Neutralization IC50 (RSV subtype A).
target: RSV F on RSV-A2 virus (Respiratory syncytial virus, RSV-A2, UniProt P03420 26-574); test: cell-based or functional assay

Binder	Neutralization IC50 (RSV subtype A)
ADI-41582 (antibody, V domains shown, also called Ab 856; Antibody Number 856) VH: EVQLVESGPGLVKPSQTLSLTCTVSGGPISSGVYYWSWIRQHPGKGLESIGYIYYSGSTHYNPSLKTRVTISLDTSKNQFSLKLSSVTAADTAVYYCARGCSGGSCYLYAFDIWGQGTTVTVSS VL: QPVLTQPPSVSVAPGQTARITCGGNNIGTKSVHWYQQKPGQAPLLVVYDDSDRPSGIPERFSGSNSGNTATLTISRVEAGDEADFYCQVWDYATDHVVFGGGTKLTVL	> 25 µg/mL
ADI-41593 (antibody, V domains shown, also called Ab 867; Antibody Number 867) VH: QVQLVQSGVEVKKPGESLKISCKGSGYSFTNYWIAWVRQMPGKGLEWMGIIYPGDSDTRYSPSFQGQVTISADKSISTAYVQWSSLKASDTAIYYCARGDILTNSGPDAFDIWGQGTMVTVSS VL: DIQMTQSPSSFSASTGDRVTITCRASQAISSYLAWFQQKPGKAPKLLIYAASTLQSGVPSRFSGSGSGTDFTLTISCLQSEDFATYYCQQYYSYPLTFGGGTKVEIK	> 25 µg/mL
ADI-41805 (antibody, V domains shown, also called Ab 914; Antibody Number 914) VH: QVQLVQSGAEVKKPGESLKISCKASGYSFTSYWIAWVRQMPGKGLEWMGIIFPGDSDTRYSPSFQGQVTISADKSISTAYLQWSSLEASDTAMYYCAKSTTYYYYGLDVWGQGTTVTVSS VL: QPVLTQPASVSGSPGQSITISCTGTSSDVGGYDYVSWYQQYPGKAPKLMIYEVSNRPLGVSNRFSGSRSGYTASLTISGLQAEDETNYYCSSYTSSRTWVFGGGTKLTVL	> 25 µg/mL
